Numbers sourced from patent US9656996B2.

# system.tested: PI3Kγ (Homo sapiens (Human), UniProt P48736)
# Sequence (P48736 whole entry, species assumed): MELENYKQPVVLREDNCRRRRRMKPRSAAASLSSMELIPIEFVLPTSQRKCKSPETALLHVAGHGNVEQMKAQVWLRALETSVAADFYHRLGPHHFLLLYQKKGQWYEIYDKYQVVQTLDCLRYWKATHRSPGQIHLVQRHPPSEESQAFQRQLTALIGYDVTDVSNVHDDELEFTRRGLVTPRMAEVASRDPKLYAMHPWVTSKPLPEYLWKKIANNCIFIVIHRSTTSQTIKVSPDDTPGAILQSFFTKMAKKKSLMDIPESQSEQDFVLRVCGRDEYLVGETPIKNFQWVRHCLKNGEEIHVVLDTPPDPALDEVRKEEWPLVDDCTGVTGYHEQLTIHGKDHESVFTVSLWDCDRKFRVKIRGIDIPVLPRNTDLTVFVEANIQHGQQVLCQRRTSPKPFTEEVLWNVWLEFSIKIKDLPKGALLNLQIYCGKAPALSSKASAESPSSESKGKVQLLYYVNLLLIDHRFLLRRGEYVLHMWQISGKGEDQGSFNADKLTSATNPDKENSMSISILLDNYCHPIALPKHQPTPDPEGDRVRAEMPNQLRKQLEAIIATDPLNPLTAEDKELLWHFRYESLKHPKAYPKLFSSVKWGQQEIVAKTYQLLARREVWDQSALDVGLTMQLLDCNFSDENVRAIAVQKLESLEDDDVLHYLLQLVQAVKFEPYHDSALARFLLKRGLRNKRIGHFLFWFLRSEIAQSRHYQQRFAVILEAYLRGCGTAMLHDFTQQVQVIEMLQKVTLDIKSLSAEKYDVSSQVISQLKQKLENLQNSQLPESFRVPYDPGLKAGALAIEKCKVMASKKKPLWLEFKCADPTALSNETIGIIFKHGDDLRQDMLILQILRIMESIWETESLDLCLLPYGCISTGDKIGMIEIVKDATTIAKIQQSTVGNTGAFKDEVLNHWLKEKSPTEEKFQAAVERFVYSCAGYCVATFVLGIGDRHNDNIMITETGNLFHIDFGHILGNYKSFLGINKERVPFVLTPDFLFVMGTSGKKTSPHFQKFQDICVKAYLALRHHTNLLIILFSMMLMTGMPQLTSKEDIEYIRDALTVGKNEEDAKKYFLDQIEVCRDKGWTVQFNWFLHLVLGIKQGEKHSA
# assay.procedure: PI3Kγ enzymatic inhibitory activity IC50 assay
# Assay type: biochemical
# condition.description: selectivity ratio
Catalogue of γ/δ (ratio of IC50 values against PI3Kγ to PI3Kδ) values
quantity.name: γ/δ (ratio of IC50 values against PI3Kγ to PI3Kδ)

compound	system.tested	assay.result
COc1ncc(-c2nc(N3CCOCC3)c3sc(CN4CCC(N(C)C(C)C)CC4)c(C)c3n2)cc1NS(C)(=O)=O [Compound 16]	PI3Kγ (Homo sapiens (Human), UniProt P48736)	>650
COc1ncc(-c2nc(N3CCOCC3)nc3c(OC4CCC(N5CCCCC5)CC4)cc(F)cc23)cc1NS(C)(=O)=O (stereo not drawn) [Compound 36]	PI3Kγ (Homo sapiens (Human), UniProt P48736)	>588
COc1ncc(-c2nc(N3CCOCC3)nc3c(OC4CCC(N5CCCCC5)CC4)cc(F)cc23)cc1NS(C)(=O)=O (stereo not drawn) [Compound 35]	PI3Kγ (Homo sapiens (Human), UniProt P48736)	>500

###

IC50 values, listed per item
# system.tested: PI3Kδ (Homo sapiens (Human))
# Sequence (O00329 whole entry, species assumed): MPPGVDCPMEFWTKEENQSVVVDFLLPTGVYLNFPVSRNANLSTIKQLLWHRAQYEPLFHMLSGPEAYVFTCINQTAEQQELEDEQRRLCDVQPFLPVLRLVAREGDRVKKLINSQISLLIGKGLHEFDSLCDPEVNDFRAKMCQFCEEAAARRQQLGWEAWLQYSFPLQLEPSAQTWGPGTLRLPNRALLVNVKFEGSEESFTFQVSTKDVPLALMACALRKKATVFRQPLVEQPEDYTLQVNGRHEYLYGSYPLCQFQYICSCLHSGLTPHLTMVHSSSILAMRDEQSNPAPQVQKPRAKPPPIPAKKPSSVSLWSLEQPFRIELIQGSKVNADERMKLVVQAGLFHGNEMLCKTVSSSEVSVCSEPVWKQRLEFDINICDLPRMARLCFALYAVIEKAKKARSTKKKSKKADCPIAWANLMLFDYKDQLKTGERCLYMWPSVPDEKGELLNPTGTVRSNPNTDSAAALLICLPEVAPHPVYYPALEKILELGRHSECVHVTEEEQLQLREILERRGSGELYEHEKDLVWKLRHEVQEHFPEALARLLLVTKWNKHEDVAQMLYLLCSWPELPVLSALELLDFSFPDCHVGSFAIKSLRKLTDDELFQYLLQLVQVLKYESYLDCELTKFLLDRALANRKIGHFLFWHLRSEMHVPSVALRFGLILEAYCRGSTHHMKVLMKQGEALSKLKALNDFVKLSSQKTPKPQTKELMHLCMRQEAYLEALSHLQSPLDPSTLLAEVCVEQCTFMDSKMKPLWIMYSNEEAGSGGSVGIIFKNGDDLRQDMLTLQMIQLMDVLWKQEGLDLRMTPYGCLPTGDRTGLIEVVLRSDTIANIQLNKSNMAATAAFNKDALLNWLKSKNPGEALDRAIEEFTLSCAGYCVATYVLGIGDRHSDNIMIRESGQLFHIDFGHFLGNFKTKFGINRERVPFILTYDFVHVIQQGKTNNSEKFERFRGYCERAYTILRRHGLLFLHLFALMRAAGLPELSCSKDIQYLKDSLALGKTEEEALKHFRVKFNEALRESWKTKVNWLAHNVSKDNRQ
# Sequence (P27986 whole entry partner, species assumed): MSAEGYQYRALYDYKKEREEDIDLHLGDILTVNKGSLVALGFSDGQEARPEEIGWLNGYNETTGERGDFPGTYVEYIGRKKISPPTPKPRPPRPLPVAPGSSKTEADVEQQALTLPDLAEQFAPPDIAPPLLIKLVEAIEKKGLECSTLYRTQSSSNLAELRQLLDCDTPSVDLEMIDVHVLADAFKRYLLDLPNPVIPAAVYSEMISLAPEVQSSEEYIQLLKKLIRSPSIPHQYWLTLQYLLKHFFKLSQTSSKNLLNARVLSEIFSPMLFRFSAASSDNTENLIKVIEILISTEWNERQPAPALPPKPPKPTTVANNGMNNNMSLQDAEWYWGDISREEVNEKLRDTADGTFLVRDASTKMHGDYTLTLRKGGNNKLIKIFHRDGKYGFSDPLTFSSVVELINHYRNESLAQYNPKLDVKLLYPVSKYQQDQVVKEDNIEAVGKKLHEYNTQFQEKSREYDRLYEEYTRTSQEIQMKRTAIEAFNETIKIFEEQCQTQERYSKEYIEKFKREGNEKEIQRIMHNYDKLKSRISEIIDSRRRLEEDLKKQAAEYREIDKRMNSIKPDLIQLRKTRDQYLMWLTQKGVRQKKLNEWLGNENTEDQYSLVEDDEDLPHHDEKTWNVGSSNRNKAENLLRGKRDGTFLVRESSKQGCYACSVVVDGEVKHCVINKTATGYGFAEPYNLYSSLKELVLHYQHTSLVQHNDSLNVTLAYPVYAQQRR

compound	IC50
COc1ncc(-c2nc(N3CCOCC3)nc3c(CN4CC[C@@H](N5CCCCC5=O)C4)cc(F)cc23)cc1NS(C)(=O)=O	0.021 µM
CN1CCN(Cc2cnc3c(-c4cncc(NS(C)(=O)=O)c4)nc(N4CCOCC4)cn23)CC1	1.03 µM
COc1ncc(-c2nc(N3CCOCC3)nc3c(OC4CCC(C(C)(C)O)CC4)cc(F)cc23)cc1NS(C)(=O)=O (stereo not shown)	0.077 µM
COc1ncc(-c2nc(N3CCOCC3)nc3c(OC4CCOCC4)cc(F)cc23)cc1NS(C)(=O)=O	0.038 µM
COc1ncc(-c2nc(N3CCOCC3)c3nc(OC4CCC(N5CCCC5)CC4)n(C)c3n2)cc1NS(C)(=O)=O (stereo not shown)	0.0153 µM
C[C@@H](O)C(=O)N1CCN(Cc2cccc3c(-c4cnc(N)nc4)nc(N4CCOCC4)nc23)CC1	0.045 µM
CS(=O)(=O)N1CCN(Cc2cccc3c(-c4cccc5[nH]ncc45)nc(N4CCOCC4)nc23)CC1	0.457 µM

###

# system.tested: PI3Kα (Homo sapiens (Human), UniProt P42336)
# Sequence (P42336 whole entry, species assumed): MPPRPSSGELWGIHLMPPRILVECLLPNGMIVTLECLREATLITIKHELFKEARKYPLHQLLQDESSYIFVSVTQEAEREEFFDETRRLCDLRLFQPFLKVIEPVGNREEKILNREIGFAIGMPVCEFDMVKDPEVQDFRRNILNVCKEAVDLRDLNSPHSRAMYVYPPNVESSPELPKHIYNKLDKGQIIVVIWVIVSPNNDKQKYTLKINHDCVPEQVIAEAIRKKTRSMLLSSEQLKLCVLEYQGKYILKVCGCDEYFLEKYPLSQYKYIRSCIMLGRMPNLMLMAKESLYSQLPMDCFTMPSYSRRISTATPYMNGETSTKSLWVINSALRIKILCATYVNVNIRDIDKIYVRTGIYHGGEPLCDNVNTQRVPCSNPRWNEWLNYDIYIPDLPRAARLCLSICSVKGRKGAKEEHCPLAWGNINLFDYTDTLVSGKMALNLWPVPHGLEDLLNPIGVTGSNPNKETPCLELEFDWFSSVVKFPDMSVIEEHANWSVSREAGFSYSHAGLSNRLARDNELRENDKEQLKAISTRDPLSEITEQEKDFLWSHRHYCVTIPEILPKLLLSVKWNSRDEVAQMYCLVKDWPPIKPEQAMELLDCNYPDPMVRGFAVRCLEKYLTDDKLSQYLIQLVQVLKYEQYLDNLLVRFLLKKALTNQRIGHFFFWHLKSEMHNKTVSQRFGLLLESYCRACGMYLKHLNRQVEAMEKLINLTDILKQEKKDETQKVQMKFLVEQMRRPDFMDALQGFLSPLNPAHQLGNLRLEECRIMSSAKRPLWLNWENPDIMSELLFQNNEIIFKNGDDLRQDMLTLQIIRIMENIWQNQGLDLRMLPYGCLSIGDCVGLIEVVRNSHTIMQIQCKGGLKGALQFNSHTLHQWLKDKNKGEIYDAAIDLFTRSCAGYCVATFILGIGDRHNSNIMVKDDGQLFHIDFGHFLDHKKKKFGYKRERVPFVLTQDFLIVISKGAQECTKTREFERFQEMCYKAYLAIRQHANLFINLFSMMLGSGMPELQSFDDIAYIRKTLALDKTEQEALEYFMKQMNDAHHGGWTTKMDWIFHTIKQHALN
# Sequence (P27986 whole entry partner, species assumed): as the sequence (P27986 whole entry partner, species assumed) above
# assay.procedure: PI3Kα enzymatic inhibitory activity IC50 assay
# Type: biochemical
# condition.description: selectivity ratio
Tick Satisfied if α/δ (ratio of IC50 values against PI3Kα to PI3Kδ) is 200 or greater. Tick Not satisfied if α/δ (ratio of IC50 values against PI3Kα to PI3Kδ) is less than 200.

molecule	group
COc1ncc(-c2nc(N3CCOCC3)nc3c(OC4CCC(N5CCCCC5)CC4)cc(F)cc23)cc1NS(C)(=O)=O (stereo not shown) [Compound 35]	Satisfied
COc1ncc(-c2nc(N3CCOCC3)nc3c(CN4CCC(N5CCCC5)CC4)cc(F)cc23)cc1NS(C)(=O)=O	Satisfied
COc1ncc(-c2nc(N3CCOCC3)c3cc(CN4CCC(N5CCCCC5)CC4)ccc3n2)cc1NS(C)(=O)=O	Not satisfied
COc1ncc(-c2nc(N3CCOCC3)nc3c(CN4CC[C@@H](N5CCCCC5=O)C4)cc(F)cc23)cc1NS(C)(=O)=O	Not satisfied
COc1ncc(-c2nc(N3CCOCC3)nc3c(CN4CCC(N5CCC5)CC4)cc(F)cc23)cc1NS(C)(=O)=O	Satisfied
COc1ncc(-c2nc(N3CCOCC3)nc3c(OC4CCC(C(C)(C)O)CC4)cc(F)cc23)cc1NS(C)(=O)=O (stereo not shown)	Not satisfied
COc1ncc(-c2nc(N3CCOCC3)nc3c(OC4CCC(N5CCCCC5)CC4)cc(F)cc23)cc1NS(C)(=O)=O (stereo not shown) [Compound 36]	Satisfied
